B1: scFv; the commonest letter at each place (parent)
chain 1: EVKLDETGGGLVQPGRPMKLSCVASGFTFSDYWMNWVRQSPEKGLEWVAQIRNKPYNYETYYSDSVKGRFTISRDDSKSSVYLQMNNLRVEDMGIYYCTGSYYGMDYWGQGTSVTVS
chain 2: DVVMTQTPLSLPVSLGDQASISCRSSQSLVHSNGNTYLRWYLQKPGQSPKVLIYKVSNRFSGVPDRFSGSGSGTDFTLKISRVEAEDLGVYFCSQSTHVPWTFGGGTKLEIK

# Variants of: B1
# test-description: yeast surface expression (ratio to wild type); higher = more expressed
# conditions: format: scFv 4-4-20, heavy + light
Here, each record is paired with measured yeast surface expression data.
Give the value as a plain number.

chain 1 M34L W36V
0.558
chain 1 Y102P G104S M105H
0.325
chain 1 M105R D106N
0.717
chain 1 S101M D106G
0.323
chain 1 Y102M Y103E
1.26

Query (variant): chain 1 G104I D106N G109F ; field requested: yeast surface expression
0.094

Query (variant): chain 1 F29I D31E Y32T ; field requested: yeast surface expression
0.84

Query (variant): chain 1 S30Y W36N ; field requested: yeast surface expression
0.436

Query (variant): chain 1 S30K ; field requested: yeast surface expression
1.12

Query (variant): chain 1 D106W Y107F ; field requested: yeast surface expression
0.264

Query (variant): chain 1 G104P ; field requested: yeast surface expression
0.859

Query (variant): chain 1 Y32A W33S V37G ; field requested: yeast surface expression
0.472

Query (variant): chain 1 T28H S30G ; field requested: yeast surface expression
1.04

Query (variant): chain 1 S101M G109H ; field requested: yeast surface expression
0.229

Query (variant): chain 1 W36D V37M ; field requested: yeast surface expression
1.25

Query (variant): chain 1 S30H W33A ; field requested: yeast surface expression
0.733

Query (variant): chain 1 N35C V37L ; field requested: yeast surface expression
0.527

Query (variant): chain 1 F29I W33H M34P ; field requested: yeast surface expression
0.518

Query (variant): chain 1 F29K D31K W33G ; field requested: yeast surface expression
0.92

Query (variant): chain 1 S30M N35V V37A ; field requested: yeast surface expression
0.167

Query (variant): chain 1 S101A Y107E W108G ; field requested: yeast surface expression
0.353

Query (variant): chain 1 N35F V37S ; field requested: yeast surface expression
0.884

Query (variant): chain 1 Y103F Y107V ; field requested: yeast surface expression
0.817
